- tested-on: Gag-Pol polyprotein (Human immunodeficiency virus type 1 group M subtype B (isolate HXB2))
- experiment-description: RNase H inhibition, HIV 1 Gag Pol polyprotein, FRET biochemical assay, screening (AID 372)
- experimental-conditions: HIV-1 RT RNase H, FRET RNA/DNA substrate fluorescence; at 10 µM; hits give high values
The campaign covered roughly 100,000 compounds. About 770 (0.77%) were called active. This excerpt belongs to a sample that is enriched for actives.
Lab note: anything with inhibition at or over 10% counts as fulfilled; the rest go in not fulfilled.

>  <smiles-notation>
O=C(N/N=C/c1ccc(F)cc1)c1cc(-c2ccc3ccccc3c2)n[nH]1

>  <class-name>
fulfilled

$$$$
>  <smiles-notation>
COc1ccc(/C=N/Nc2ccc([N+](=O)[O-])cc2)cc1Br

>  <class-name>
not fulfilled

$$$$
>  <smiles-notation>
O=C(N/N=C\c1ccc(OC(=O)c2ccc(Br)cc2)cc1)c1ccc(Br)cc1

>  <class-name>
fulfilled

$$$$
>  <smiles-notation>
O=[N+]([O-])c1ccc(N/N=C/c2ccc(Cl)c([N+](=O)[O-])c2)cc1

>  <class-name>
not fulfilled

$$$$

* * *

Item-by-item account of inhibition
- tested-on: Gag-Pol polyprotein (Human immunodeficiency virus type 1 group M subtype B (isolate HXB2))
- experiment-description: RNase H inhibition, HIV 1 Gag Pol polyprotein, FRET biochemical assay, screening (AID 372)
- experimental-conditions: HIV-1 RT RNase H, FRET RNA/DNA substrate fluorescence; at 10 µM; hits give high values
Out of some 100,000 compounds screened, about 770 (0.77%) were called active. The sample as a whole holds a higher share of actives than the screen did.

>  <molecule>
CCCC(=O)Nc1sc(C(=O)N(CC)CC)c(C)c1C(=O)OC

>  <inhibition>
24% (inactive)

$$$$
>  <molecule>
O=[N+]([O-])c1ccc(N/N=C/c2ccc(O)c(O)c2)cc1

>  <inhibition>
57% (active)

$$$$
>  <molecule>
Cc1ccc(-c2cc(C(=O)N/N=C/c3ccc([N+](=O)[O-])cc3)[nH]n2)cc1

>  <inhibition>
24% (inactive)

$$$$
>  <molecule>
O=C(N/N=C/c1ccc(/C=N/NC(=O)c2cccc([N+](=O)[O-])c2)cc1)c1cccc([N+](=O)[O-])c1

>  <inhibition>
12% (inactive)

$$$$
>  <molecule>
Cc1ccc(C(=O)N2N=C(c3ccc(Cl)cc3)CC2(O)C(F)(F)F)o1 (stereo not given)

>  <inhibition>
20% (inactive)

$$$$
>  <molecule>
O=C(N/N=C/c1ccc([N+](=O)[O-])cc1)c1cc(-c2ccc3ccccc3c2)n[nH]1

>  <inhibition>
50% (active)

$$$$
>  <molecule>
Cc1ccc(-n2c(O)c(/C=C3\C=Nc4ccccc43)c(=O)[nH]c2=S)cc1

>  <inhibition>
15% (inactive)

$$$$
>  <molecule>
O=[N+]([O-])c1ccc(N/N=C/c2ccc(O)c(Br)c2)cc1

>  <inhibition>
50% (active)

$$$$
>  <molecule>
CCN(CC)C(=O)c1sc(NC(=O)C(C)(C)C)c(C(=O)OC)c1C

>  <inhibition>
43% (inactive)

$$$$
>  <molecule>
O=c1[nH]c(=S)n(-c2ccc(Br)cc2)c(O)c1/C=C1\C=Nc2ccccc21

>  <inhibition>
20% (inactive)

$$$$

* * *

- tested-on: Gag-Pol polyprotein (Human immunodeficiency virus type 1 group M subtype B (isolate HXB2)) (UniProt P04585)
- experiment-description: RNase H inhibition, HIV 1 Gag Pol polyprotein, FRET biochemical assay, screening (AID 372)
- experimental-conditions: HIV-1 RT RNase H, FRET RNA/DNA substrate fluorescence; at 10 µM; hits give high values
About 770 (0.77%) of roughly 100,000 compounds were called active. For the sample, actives were picked, then their nearest neighbours and some compounds at random.
Catalogue of inhibition readings, one per entry.

>  <molecule>
COc1ccc(C(=O)NC(=S)Nc2cc(-c3nc4ccccc4s3)ccc2Cl)cc1OC

>  <inhibition [%]>
10

$$$$
>  <molecule>
Cc1nc2ccccc2n1C(=O)c1ccc([N+](=O)[O-])cc1

>  <inhibition [%]>
0

$$$$
>  <molecule>
Cc1cc(Cl)ccc1OC(C)C(=O)N1CCN(c2cccc(Cl)c2)CC1 (stereo not drawn)

>  <inhibition [%]>
10

$$$$
>  <molecule>
O=C(Nc1nccs1)c1ccc(N2C(=O)c3ccc([N+](=O)[O-])cc3C2=O)cc1

>  <inhibition [%]>
31

$$$$
>  <molecule>
O=C(NC(=S)Nc1cc(-c2nc3ccccc3s2)ccc1Cl)c1ccccc1

>  <inhibition [%]>
37

$$$$
>  <molecule>
O=C(Nc1nccs1)c1ccc(N2C(=O)c3cccc([N+](=O)[O-])c3C2=O)cc1

>  <inhibition [%]>
56

$$$$
>  <molecule>
Cn1c(O)c(C(=NCc2ccccc2)c2ccccc2)c(=O)n(C)c1=O

>  <inhibition [%]>
8

$$$$
>  <molecule>
O=C(NC(=S)Nc1cc(-c2nc3ccccc3s2)ccc1Cl)c1ccc(Cl)cc1

>  <inhibition [%]>
33

$$$$
>  <molecule>
COc1ccc(C(=O)NC(=S)Nc2ccc(Br)cn2)cc1OC

>  <inhibition [%]>
21

$$$$
>  <molecule>
CC1CCN(Cc2c(O)ccc3c(=O)c(-c4ccc(Cl)cc4)coc23)CC1

>  <inhibition [%]>
0

$$$$
>  <molecule>
COc1ccccc1N=Cc1c(O)n(-c2ccccc2F)c(=O)[nH]c1=O

>  <inhibition [%]>
8

$$$$
>  <molecule>
O=C1c2ccccc2CCC1C1(O)C(=O)Nc2ccc(Br)cc21 (stereo not drawn)

>  <inhibition [%]>
2

$$$$
>  <molecule>
CCOc1ccc(C(=O)Nc2ccc(Br)cn2)cc1Cl

>  <inhibition [%]>
4

$$$$
>  <molecule>
Cc1ccc(N(Cc2ccc(C(=O)N/N=C/c3ccc(OC4CSC4)cc3)cc2)S(C)(=O)=O)cc1C

>  <inhibition [%]>
56

$$$$
>  <molecule>
COc1cc([N+](=O)[O-])ccc1NC(=O)c1ccccc1

>  <inhibition [%]>
16

$$$$
>  <molecule>
O=C(N1CCN(C(c2ccccc2)c2ccccc2)CC1)C12CC3CC(CC(C3)C1)C2

>  <inhibition [%]>
25

$$$$
>  <molecule>
CSC1=C(C#N)C(c2ccc(Cl)cc2)C(C(C)=O)=C(C)N1 (stereo not drawn)

>  <inhibition [%]>
2

$$$$
>  <molecule>
COc1ccc(C(=O)NC(=S)Nc2cc(-c3nc4ccccc4s3)ccc2Cl)cc1

>  <inhibition [%]>
50

$$$$
>  <molecule>
CCOc1cc(/C=C2\SC(=S)N(c3ccc(F)cc3)C2=O)ccc1O

>  <inhibition [%]>
18

$$$$
>  <molecule>
Cc1ccc(-c2nc3ccccc3s2)cc1NC(=O)c1ccc(Cl)c([N+](=O)[O-])c1

>  <inhibition [%]>
3

$$$$
>  <molecule>
Nc1ccc[n+](CC(=O)c2ccccc2)c1

>  <inhibition [%]>
2

$$$$
>  <molecule>
Cc1ccc(C(=O)Nc2cc(-c3nc4ccccc4s3)ccc2Cl)cc1[N+](=O)[O-]

>  <inhibition [%]>
39

$$$$
>  <molecule>
COc1ccc(Cl)cc1S(=O)(=O)Oc1ccc(Cl)cc1

>  <inhibition [%]>
39

$$$$
>  <molecule>
CC1=C(C(=O)OCC(C)C)C(c2cccc(O)c2)C2=C(CC(c3ccc(Cl)cc3)CC2=O)N1 (stereo not drawn)

>  <inhibition [%]>
21

$$$$
>  <molecule>
COc1cc(S(=O)(=O)Oc2ccc(OCc3ccccc3)cc2)ccc1Cl

>  <inhibition [%]>
5

$$$$
>  <molecule>
Cc1ccc(N(Cc2ccc(C(=O)N/N=C/c3cc(Br)c(C)o3)cc2)S(C)(=O)=O)cc1C

>  <inhibition [%]>
19

$$$$
>  <molecule>
CCN(CC)S(=O)(=O)c1ccc(C(C)(C)C)cc1

>  <inhibition [%]>
15

$$$$
>  <molecule>
O=C(Nc1ccc(OC(F)(F)F)cc1)c1cccc(OCc2ccccc2)c1

>  <inhibition [%]>
0

$$$$
>  <molecule>
COC(=O)c1ccccc1NC(=O)c1cc(=O)[nH]c2ccccc12

>  <inhibition [%]>
1

$$$$
>  <molecule>
CC(Oc1ccc(/C=C2/SC(=O)NC2=O)cc1)C(=O)O (stereo not drawn)

>  <inhibition [%]>
10

$$$$
>  <molecule>
COc1ccc(C(=O)NC(=S)Nc2ccc(Cl)cn2)cc1Br

>  <inhibition [%]>
23

$$$$
>  <molecule>
COc1ccc(Br)cc1C(=O)NC(=S)Nc1ccc(Cl)cn1

>  <inhibition [%]>
53

$$$$
>  <molecule>
CCOC(=O)c1cc(Br)c(Cl)cc1[N+](=O)[O-]

>  <inhibition [%]>
10

$$$$
>  <molecule>
COc1cc(C=O)ccc1OCCCOc1cc(C)c(Cl)cc1C

>  <inhibition [%]>
21

$$$$
>  <molecule>
CCN(CC)S(=O)(=O)c1ccc(-c2ccc(S(=O)(=O)N(CC)CC)cc2)cc1

>  <inhibition [%]>
11

$$$$
>  <molecule>
Cc1ccc2nc(-c3ccc(Cl)cc3)cn2c1

>  <inhibition [%]>
5

$$$$
>  <molecule>
CCOCCOC(=O)C1=C(C)NC2=C(C(=O)CC(c3ccc(OC)cc3)C2)C1c1cccc(OC)c1OC (stereo not drawn)

>  <inhibition [%]>
5

$$$$
>  <molecule>
CC(=O)N(C1=C(N(C)C)C(=O)c2ccccc2C1=O)c1ccc(Br)cc1

>  <inhibition [%]>
1

$$$$
>  <molecule>
O=C(CN(c1ccc([N+](=O)[O-])cc1)S(=O)(=O)c1ccccc1)NC1CC2CCC1C2 (stereo not drawn)

>  <inhibition [%]>
13

$$$$
>  <molecule>
O=C1C(=O)N(c2cccnc2)C(c2ccc(F)cc2)/C1=C(\O)c1ccc(Cl)cc1 (stereo not drawn)

>  <inhibition [%]>
2

$$$$
>  <molecule>
CCOP(=O)(CN1CCN(CP(=O)(OCC)OCC)CC1)OCC

>  <inhibition [%]>
2

$$$$
>  <molecule>
Cc1ccccc1OCCNc1cc(N2CCOCC2)ccc1[N+](=O)[O-]

>  <inhibition [%]>
10

$$$$
>  <molecule>
CC(C)(O)C#CCN1CCOCC1

>  <inhibition [%]>
0

$$$$
